# TARGET_DESC: UniProt O43614
# Sequence (O43614 whole entry): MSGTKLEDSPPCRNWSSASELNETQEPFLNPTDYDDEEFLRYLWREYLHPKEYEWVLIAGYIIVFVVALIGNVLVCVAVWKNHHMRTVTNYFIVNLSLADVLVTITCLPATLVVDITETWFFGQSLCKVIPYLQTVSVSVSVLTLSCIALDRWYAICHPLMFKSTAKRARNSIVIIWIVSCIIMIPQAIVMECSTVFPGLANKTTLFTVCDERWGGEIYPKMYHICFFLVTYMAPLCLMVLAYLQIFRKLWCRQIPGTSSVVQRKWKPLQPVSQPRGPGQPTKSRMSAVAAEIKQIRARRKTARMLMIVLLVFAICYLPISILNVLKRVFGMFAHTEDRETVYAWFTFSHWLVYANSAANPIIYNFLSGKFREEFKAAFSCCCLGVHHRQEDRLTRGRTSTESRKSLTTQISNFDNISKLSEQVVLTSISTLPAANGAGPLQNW
# METHOD_SUMMARY: Human orexin 2 receptor Ca2+ mobilization assay (FLIPR, PFSK cells, orexin B 100 nM)
# Assay type: cell-based
# CONDITION_CONTEXT: modified Cheng-Prusoff correction, read-out: OR 2 Kb
Task for the reader: assign each of the following compounds its reported Kb.
Please reply with the bare figure in nM and do not write the unit itself.

The reported value for Cc1cc(C)nc(N2CC3CN(C(=O)c4c(F)cccc4-c4nc(C)no4)CC3C2)n1 (stereo not shown) [Example 315] in terms of Kb is 10

The reported value for COc1ccc(C(=O)N2CC3CN(c4ncc(C)c(C)n4)CC3C2)c(-n2nccn2)c1 (stereo not shown) [Example 380] in terms of Kb is 5

The reported value for Cc1cc(C)nc(N2CC3CN(C(=O)c4ccccc4-c4cccs4)CC3C2)n1 (stereo not shown) [Example 43] in terms of Kb is 10

The reported value for CN(C)c1cc(N2CC3CN(C(=O)c4ccccc4-n4nccn4)CC3C2)nc(C(F)(F)F)n1 (stereo not shown) [Example 2] in terms of Kb is 16
